# tested on: Ubiquitin-activating enzyme e1, putative (Leishmania donovani (strain BPK282A1)) (UniProt E9BSI1)
# Sequence (E9BSI1 as listed by the source): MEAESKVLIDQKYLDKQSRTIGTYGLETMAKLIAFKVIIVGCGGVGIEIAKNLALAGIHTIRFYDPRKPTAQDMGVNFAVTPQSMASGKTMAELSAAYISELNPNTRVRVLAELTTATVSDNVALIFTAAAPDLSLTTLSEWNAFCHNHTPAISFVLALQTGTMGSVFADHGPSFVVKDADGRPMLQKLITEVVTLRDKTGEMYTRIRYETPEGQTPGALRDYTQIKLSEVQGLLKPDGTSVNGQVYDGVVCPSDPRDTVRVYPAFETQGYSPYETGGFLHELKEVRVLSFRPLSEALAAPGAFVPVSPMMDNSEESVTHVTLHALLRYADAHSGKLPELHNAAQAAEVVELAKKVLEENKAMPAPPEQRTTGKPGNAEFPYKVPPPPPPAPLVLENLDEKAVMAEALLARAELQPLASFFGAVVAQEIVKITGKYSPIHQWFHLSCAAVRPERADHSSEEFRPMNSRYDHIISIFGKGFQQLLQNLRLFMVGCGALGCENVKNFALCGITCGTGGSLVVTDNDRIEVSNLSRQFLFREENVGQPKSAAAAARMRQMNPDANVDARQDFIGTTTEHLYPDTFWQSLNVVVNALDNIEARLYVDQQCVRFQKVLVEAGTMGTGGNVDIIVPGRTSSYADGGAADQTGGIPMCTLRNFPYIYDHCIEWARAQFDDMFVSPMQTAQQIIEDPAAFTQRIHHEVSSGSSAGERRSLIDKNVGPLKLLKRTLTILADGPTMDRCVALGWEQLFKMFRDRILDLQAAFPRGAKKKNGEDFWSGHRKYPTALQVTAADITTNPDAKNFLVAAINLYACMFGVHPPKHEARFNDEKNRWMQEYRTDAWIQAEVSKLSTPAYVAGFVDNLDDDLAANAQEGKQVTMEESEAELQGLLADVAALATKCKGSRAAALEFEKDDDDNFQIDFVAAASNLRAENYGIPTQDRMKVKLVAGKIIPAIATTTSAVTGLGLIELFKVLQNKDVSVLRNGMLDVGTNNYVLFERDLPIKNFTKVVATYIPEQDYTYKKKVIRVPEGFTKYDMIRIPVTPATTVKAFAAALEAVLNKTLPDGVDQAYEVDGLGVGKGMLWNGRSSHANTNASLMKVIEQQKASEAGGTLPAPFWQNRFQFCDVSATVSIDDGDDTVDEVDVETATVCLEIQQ
# experiment: Leishmania donovani Ubiquitin Activating Enzyme (LdE1)
# Format: functional
# Design: scale not given: direction of the effect not stated beside the values
# measurement context: 30 µM
Potency and affinity values are given separately.
Please respond with reported Percent Effect for every item in the list.
Give bare numbers, in %.

Take a look at these entries with their results.
Cc1nn(C)c(Cl)c1CNCc1cccnc1N1CCOCC1 ... 21.1
CNc1cc2c(nn1)CCN(C(=O)c1cc(F)cc(F)c1)C2 ... 10.4

Now look at this one.
Qu. Consider the molecule O=C(Nc1cc(F)ccc1OCC1CCCO1)N1CCCC1 (stereo not drawn) and give its recorded Percent Effect.
Ans. 2.6

###

# System: Trypanosoma cruzi
# experiment: Trypanosoma cruzi phosphomannomutase and mannose-1-phosphate guanylyltransferase assay
# Format: functional
# Design: scale not given: direction of the effect not stated beside the values
# measurement context: 10 µM
Would you kindly list Percent Effect for each of these compounds?
One number for each entry, in %.

Here are 3 compounds. What values of Percent Effect were reported for them?
1. COc1ccc(CNC(C)c2cccc(Cl)c2)c(OC)c1OC (stereo unspecified)
2. c1ccc(-c2cc(CN3CCC(c4ccn[nH]4)CC3)on2)cc1
3. CN(Cc1nc(-c2ccco2)no1)C1CCCN(c2cccnn2)C1 (stereo unspecified)

Ans.
[6.52, -1.54, 2.17]

###

# tested on: Tyrosyl-tRNA synthetase, putative (Trypanosoma cruzi (strain CL Brener))
# Sequence (whole entry): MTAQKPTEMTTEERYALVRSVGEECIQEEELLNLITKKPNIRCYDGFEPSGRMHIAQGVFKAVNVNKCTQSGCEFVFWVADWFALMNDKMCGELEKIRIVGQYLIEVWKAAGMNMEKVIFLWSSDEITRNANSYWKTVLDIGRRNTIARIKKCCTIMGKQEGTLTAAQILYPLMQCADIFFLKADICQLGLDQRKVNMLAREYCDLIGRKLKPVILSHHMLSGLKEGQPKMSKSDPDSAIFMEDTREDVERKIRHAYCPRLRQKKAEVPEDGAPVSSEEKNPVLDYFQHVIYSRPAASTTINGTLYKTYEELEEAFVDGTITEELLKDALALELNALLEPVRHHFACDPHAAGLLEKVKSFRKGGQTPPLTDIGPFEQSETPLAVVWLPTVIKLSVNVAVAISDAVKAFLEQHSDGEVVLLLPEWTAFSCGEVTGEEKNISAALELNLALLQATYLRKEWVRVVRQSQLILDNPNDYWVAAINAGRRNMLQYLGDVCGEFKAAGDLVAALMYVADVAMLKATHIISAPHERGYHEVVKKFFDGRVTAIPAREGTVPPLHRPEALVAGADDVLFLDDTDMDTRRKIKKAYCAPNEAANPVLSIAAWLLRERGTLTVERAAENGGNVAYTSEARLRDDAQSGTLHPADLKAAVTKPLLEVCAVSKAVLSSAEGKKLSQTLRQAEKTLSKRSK
# experiment: Trypanosoma cruzi tyrosyl tRNA synthetase (TcYRS) _High Tyrosine SOP; further: in the data most compounds retested in dose-response had high values
# Format: functional
# Set-up: scale not given: direction of the effect not stated beside the values
# measurement context: 30 µM
Please go through the items and note down their Percent Effect.
Give bare numbers, in %.

Reference set (2 entries):
NCc1cnn(-c2ccccc2C(=O)NCCCn2ccnc2)c1 ... 7.53
CCCc1nc(C)cc(N2CCC3(CCC(=O)N(CCOC)C3)CC2)n1 ... 4.3

List the reported Percent Effect of each compound below.
1. COc1ccc(NC(=O)NC(C)c2nc[nH]n2)cc1 (stereo unspecified)
2. CCn1cc(NC(=O)C2CCN(Cc3noc(C(C)C)n3)CC2)cn1
3. Cc1cnn(CC2CCCN2C(=O)CCCc2nc(C)no2)c1 (stereo unspecified)
4. N#Cc1ccc(CNCC2CCN(CCO)CC2)cc1
5. CN(CC(=O)NCc1ccccn1)CC1CCCN1c1cccnn1 (stereo unspecified)
6. Cc1ccc(C(=O)N2CCC3(CCC(=O)N(CC(N)=O)C3)CC2)c(O)c1
7. O=C(C1CC(=O)N(C2CCCC2)C1)N1CCN(CCn2cccc2)CC1 (stereo unspecified)
8. O=C(NCCCOCC1CC1)Nc1cccnc1N1CCOCC1

Ans.
1: 0; 2: 9.38; 3: 1.06; 4: 0; 5: 8.91; 6: 3.16; 7: 3.83; 8: -21.8

Lab note: each compound below needs its Percent Effect filled in.
1. O=C(Nc1cccc(Cl)c1)c1nn(C2CCS(=O)(=O)C2)c2c1CCCC2 (stereo unspecified)
2. CN(C)C(=O)CNC(=O)c1cc(Br)c2c(c1)OCCO2

Ans.
1. -1.06
2. 7.1

Give Percent Effect for each listed item.
1. CCc1nnc2n1CCN(CC(=O)Nc1sccc1C#N)C2
2. CCOCCNc1nc(C2CCCC2)nc2c1cnn2C
3. Cn1ccnc1SCc1nc(C(C)(C)NC(=O)OC(C)(C)C)no1
4. CN(CC1CCCO1)C1CCN(CCc2ccccn2)CC1 (stereo unspecified)
5. O=C(CN1CCCCC1Cn1cncn1)NCc1ccccn1 (stereo unspecified)
6. O=C(NCC1CC1)Nc1cnc2cc(Cl)ccc2c1O
7. CN(Cc1ccsc1)C(=O)CN1CCCC1Cn1cccn1 (stereo unspecified)

Ans.
1: 5.42; 2: 1.07; 3: 6.01; 4: 3.96; 5: 4.43; 6: -1.07; 7: 11.4

Parameter requested: Percent Effect. Apply to each item below.
1. Cn1cc(C2CCCN2C(=O)Cc2n[nH]c3ccccc23)cn1 (stereo unspecified)
2. Cc1cccc(OCCC(=O)NCC(C)(C)C(N)=O)c1
3. CC(C)n1ccnc1C1CCN(Cc2ccc(Cl)s2)CC1
4. CC(=O)c1cc(CC(=O)NCc2ccc(CN(C)C)cc2)cs1
5. CSCC(=O)N1CCC2(CC1)c1ccccc1CC2O (stereo unspecified)
6. Cc1ccccc1CNC(=O)Cc1c(C)nc2cc(=O)[nH]n2c1C

Ans.
1: 6.4; 2: 4.41; 3: 8.6; 4: 2.65; 5: 5.38; 6: 9.31

// each compound listed below needs its Percent Effect
1. CC(C)c1cc2c(O)nc(CSCC(=O)O)nc2s1
2. CN(C)S(=O)(=O)c1ccc(CN2CCCC2CO)o1 (stereo unspecified)
3. COc1cc(C)ccc1OCCC(=O)N1CCCC1Cn1cccn1 (stereo unspecified)
4. Cn1cnnc1C1CCCN(C(=O)Cc2ccc3c(c2)OCCO3)C1 (stereo unspecified)

Ans.
1: 4.23; 2: 4.43; 3: 5.42; 4: 7.62

For each of the compounds below, note its Percent Effect.
1. CCOC(C)c1nc(CN2CCNCC2)cs1 (stereo unspecified)
2. CC(=O)N1CCC2(CC1)CC(Oc1ccccc1)CO2 (stereo unspecified)

Ans.
1: -1.59; 2: 6.25

Give me Percent Effect for each of these compounds, listed below.
1. COc1cccc(CCNS(=O)(=O)c2ccc(NC(C)=O)cc2)c1
2. O=C(Cc1ccc(-n2cccn2)cc1)N1CCCC(n2cccn2)C1 (stereo unspecified)
3. CCc1nc(C2CCCN(C(=O)c3ccc4[nH]nnc4c3)C2)no1 (stereo unspecified)
4. CCc1nnc2n1CCN(C(=O)COCCc1ccccc1)C2
5. Cc1nc(CN(C)C2CCN(CC3CCCCC3)C2)no1 (stereo unspecified)

Ans.
[1.06, 6.67, 0, 3.45, 5.94]

###

# tested on: Chromo domain-containing protein 1 (Saccharomyces cerevisiae (strain ATCC 204508 / S288c) (Baker's yeast)) (UniProt P32657)
# Sequence (P32657 whole entry, the tested form may be a part): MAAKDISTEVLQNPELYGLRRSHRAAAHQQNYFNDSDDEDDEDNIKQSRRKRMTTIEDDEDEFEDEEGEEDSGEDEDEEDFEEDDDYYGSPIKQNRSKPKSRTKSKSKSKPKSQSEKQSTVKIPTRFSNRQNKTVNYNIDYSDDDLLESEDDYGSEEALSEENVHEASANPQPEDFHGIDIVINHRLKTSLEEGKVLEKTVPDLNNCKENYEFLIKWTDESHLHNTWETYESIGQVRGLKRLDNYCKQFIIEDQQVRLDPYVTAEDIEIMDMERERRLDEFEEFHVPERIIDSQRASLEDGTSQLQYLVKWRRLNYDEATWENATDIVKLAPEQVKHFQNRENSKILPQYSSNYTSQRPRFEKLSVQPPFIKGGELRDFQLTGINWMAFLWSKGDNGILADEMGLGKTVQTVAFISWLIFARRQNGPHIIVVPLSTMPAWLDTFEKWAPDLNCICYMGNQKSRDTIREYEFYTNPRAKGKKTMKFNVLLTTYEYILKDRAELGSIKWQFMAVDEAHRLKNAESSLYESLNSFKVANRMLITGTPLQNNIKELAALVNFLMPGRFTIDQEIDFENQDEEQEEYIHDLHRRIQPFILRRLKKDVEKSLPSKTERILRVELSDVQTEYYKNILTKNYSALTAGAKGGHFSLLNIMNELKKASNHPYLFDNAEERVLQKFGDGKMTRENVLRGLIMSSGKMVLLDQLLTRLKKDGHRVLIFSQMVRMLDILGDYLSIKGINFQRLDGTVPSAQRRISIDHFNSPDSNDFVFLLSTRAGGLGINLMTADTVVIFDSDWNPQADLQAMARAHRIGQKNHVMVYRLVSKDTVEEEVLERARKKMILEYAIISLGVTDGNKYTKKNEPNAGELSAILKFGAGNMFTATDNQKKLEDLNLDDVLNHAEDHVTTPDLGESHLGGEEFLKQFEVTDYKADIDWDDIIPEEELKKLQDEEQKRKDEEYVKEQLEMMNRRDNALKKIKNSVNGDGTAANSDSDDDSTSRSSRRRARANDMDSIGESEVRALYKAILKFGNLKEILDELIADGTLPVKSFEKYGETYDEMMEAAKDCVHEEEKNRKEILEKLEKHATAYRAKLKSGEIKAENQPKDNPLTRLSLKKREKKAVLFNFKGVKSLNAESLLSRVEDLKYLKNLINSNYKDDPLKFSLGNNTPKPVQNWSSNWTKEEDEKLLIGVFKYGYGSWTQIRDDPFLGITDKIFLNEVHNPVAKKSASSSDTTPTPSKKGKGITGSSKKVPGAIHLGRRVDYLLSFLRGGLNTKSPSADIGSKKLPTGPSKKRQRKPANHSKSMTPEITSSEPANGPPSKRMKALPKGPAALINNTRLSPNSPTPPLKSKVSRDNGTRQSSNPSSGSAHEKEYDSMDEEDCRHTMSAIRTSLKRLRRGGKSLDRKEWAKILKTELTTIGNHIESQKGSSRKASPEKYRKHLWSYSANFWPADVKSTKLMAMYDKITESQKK
# experiment: ScCHD-1 Enzyme Inhibition Assay; further: in the data most compounds retested in dose-response had high values
# Type: functional
# Design: scale not given: direction of the effect not stated beside the values
# measurement context: 30 µM
quantity: Percent Effect (%)
Give bare numbers, in %.

Solved cases below.
Cc1nc(CN2CCOC(CNc3cccnn3)C2)cs1 (stereo not given) ... -6.92
CC(C(=O)NCCOc1ccc2c(c1)OCO2)n1cncn1 (stereo not given) ... -2.77
Cc1cnn(CCNCc2csc(-c3cccs3)n2)c1 ... 6.81

Could you report Percent Effect for every entry in the following list?
1. Cc1noc2ncc(C(=O)NCC3CCN(C(C)C)C3)cc12 (stereo not given)
2. Cc1ccc(C(=O)NCC2(O)CCOCC2)cc1Br

Ans.
3.24
-2.67

###

# Test system: Trypanosoma cruzi
# experiment: Trypanosoma cruzi phosphomannomutase and mannose-1-phosphate guanylyltransferase assay
# Type: functional
# Design: scale not given: direction of the effect not stated beside the values
# measurement context: 10 µM
Please respond with reported Percent Effect for every item in the list.
Numbers only, in %.

N#Cc1cccc(SCCS(N)(=O)=O)c1 ... 5.15

Please give Percent Effect for each item listed below.
1. Cc1ccc(C(=O)N2CCO[C@H]3[C@@H](OCc4ccccn4)CC[C@@H]32)o1
2. O=C(NCCCOCC1CC1)Nc1cccnc1N1CCOCC1
3. O=C1NCC2(CCCN(CCc3ccccc3)C2)Oc2ccccc21 (stereo not drawn)
4. Cc1cc2nc(SCC(=O)N3CCCC3)n(-c3ccccc3)c(=O)c2[nH]1
5. COC[C@@]12CCO[C@@H]1CCN(Cc1ccccc1F)C2

Ans.
-4.44
-5.27
-3.36
-3.02
5.75
